Tested on: soybean (Glycine max var. Winchester)
test: Preemergence herbicidal activity, soybean
Type: in vivo
measurement.conditions: Rate of Application 0.3 Kg/Ha, examined after 12-17 days
Method: The benzofused heterocyclic compounds of this invention were tested for pre- and postemergence herbicidal activity using a variety of crops and weeds. […] The preemergence flats were initially subjected to a light water spray. […] After 12-17 days the plants were examined and the phytotoxicity data were recorded. […]
// PREEMERGENCE HERBICIDAL ACTIVITY (% CONTROL) SOY lookup, one value per entry
Write down the numeric answer in % and omit the unit.

| molecule | observed.result |
| --- | --- |
| Cn1c(C(F)(F)F)cc(=O)n(-c2c(F)cc(Cl)c3c2nc(C(F)(F)F)n3C)c1=O [Compound 399] | 95 |
| COCc1nc2c(-n3c(=O)cc(C(F)(F)F)n(C)c3=O)c(F)cc(Cl)c2[nH]1 [Compound 370] | 100 |
| CCN(CC)Cc1cc2c(Cl)ccc(-n3c(=O)cc(C(F)(F)F)n(C)c3=O)c2o1 [Compound 257] | 40 |

## Task Field request: PREEMERGENCE HERBICIDAL ACTIVITY (% CONTROL) SOY | item: Cn1c(C(F)(F)F)cc(=O)n(-c2c(F)cc(Cl)c3cc(C(C)(C)N)oc23)c1=O [Compound 254]
## Result 25

## Task Field request: PREEMERGENCE HERBICIDAL ACTIVITY (% CONTROL) SOY | item: CN(C)C(=O)c1cc2c(Cl)ccc(-n3c(=O)cc(C(F)(F)F)n(C)c3=O)c2o1 [Compound 271]
## Result 80
